- assay-overview: gradient 5% acetonitrile 3 min, to 50% in 2 min, to 85% in 15 min, held 3 min, 100 µL/min
- test-context: column: Zorbax Extend-C18 2.1 x 50 mm; eluents: water / acetonitrile, 0.1% formic acid
observed-property: RP-LC retention time (s)

COc1cc(NC(=O)Cc2c(C(=O)O)c(C)cn2C)cc(OC)c1 = 778
CCC(C)NC(=O)N1CC(Oc2ccccc2-c2nc(-c3ccccc3)no2)C1 (stereo not given) = 999
Cc1ccc(NC(=O)Cn2cnc3c(sc4nc(-c5ccccc5)ccc43)c2=O)c(C)c1 = 1060
O=C(c1cc(-c2ccco2)on1)N1CCCC(c2nnc(-c3ccccc3F)s2)C1 (stereo not given) = 923
COc1ccc(NC(=O)c2cn(-c3cc(N4CCCCC4)ncn3)cn2)cc1Cl = 984

* * *

- assay-overview: gradient 5% acetonitrile 3 min, to 50% in 2 min, to 85% in 15 min, held 3 min, 100 µL/min
- test-context: column: Zorbax Extend-C18 2.1 x 50 mm; eluents: water / acetonitrile, 0.1% formic acid
observed-property: RP-LC retention time (s)

COC(=O)CNC(=O)Cc1c(C)nn(-c2nc(-c3ccc(Cl)cc3)cs2)c1C = 1010
CCn1c(=O)sc2cc(S(=O)(=O)N3CCC(C(=O)NC4CCC(C)CC4)CC3)ccc21 (stereo not given) = 967
Cc1ccc(C)c(CNC(=O)c2cc3c(=O)n(C)c4ccccc4n3n2)c1 = 966

I. CCC(C(=O)Nc1cc(-c2cn3nc(OC)ccc3n2)ccc1F)c1ccccc1 (stereo not given)
II. Cc1ccc(-c2nc3ccccn3c2NC(=O)NCc2ccco2)cc1
Query: Field: lower RP-LC retention time | Options: I / II Refer to your chosen entry by its label in the reply.
Result: II

* * *

- assay-overview: gradient 5% acetonitrile 3 min, to 50% in 2 min, to 85% in 15 min, held 3 min, 100 µL/min
- test-context: column: Zorbax Extend-C18 2.1 x 50 mm; eluents: water / acetonitrile, 0.1% formic acid
observed-property: RP-LC retention time (s)

Cc1ccc2c(c1)N(S(C)(=O)=O)CCC(C(=O)Nc1ccc(Br)cc1F)O2 (stereo not given) = 1030
CCCCn1cc(S(=O)(=O)Nc2ccc(F)c(C)c2)c2cccnc21 = 995
Cc1ccc(-n2nc(N3CCCC(C(=O)NCc4ccc(N(C)C)cc4)C3)ccc2=O)cc1Cl (stereo not given) = 692
CCCN1C(=O)COc2ccc(-c3noc(-c4n[nH]c5c4CCCC5)n3)cc21 = 1000
Cc1ccc(C2c3[nH]c4ccccc4c3CCN2C(=O)Cc2cccs2)cc1 (stereo not given) = 988
CCCc1cc(N2CCN(C(=O)C3CC3)CC2)nc2nncn12 = 586

a. CNC(=O)[C@H](Cc1c[nH]c2ccccc12)NC(=O)[C@@H](CC(=O)NO)CC(C)C
b. Cc1ccccc1-c1nnc(CSc2nnc(NC(=O)c3cccc(F)c3)s2)o1
c. Cc1cccc(OCc2nc(C)c(C(=O)Nc3nc(-c4ccc(C)c(C)c4)cs3)s2)c1
Query: Rank order required: RP-LC retention time, descending. Lab note: final answer is the ordered label list.
Result: c, b, a

* * *

- assay-overview: gradient 5% acetonitrile 3 min, to 50% in 2 min, to 85% in 15 min, held 3 min, 100 µL/min
- test-context: column: Zorbax Extend-C18 2.1 x 50 mm; eluents: water / acetonitrile, 0.1% formic acid
observed-property: RP-LC retention time (s)

Known results for molecules:
CNC(=O)N1CCCC1c1nc(C2CN(C(=O)c3cccn3C)C2)no1 (stereo not given) = 629
CCCNC(=O)c1cc(-c2ccc(F)cc2)cn1CC = 925
CCn1c(CCc2ccccc2NS(=O)(=O)c2c(C)n[nH]c2C)nc2ccccc21 = 630

a. O=C(Nc1cccc(F)c1)c1c(O)c2cccnc2n(-c2ccccc2)c1=O
b. COCCNC(=O)c1nc(Nc2ccc(F)cc2)c2ccccc2n1
Query: Select the item with the higher value of RP-LC retention time from the options a and b listed. Could you answer with the label of the item you picked?
Result: a
(a: 1230 s, b: 681 s)

* * *

- assay-overview: gradient 5% acetonitrile 3 min, to 50% in 2 min, to 85% in 15 min, held 3 min, 100 µL/min
- test-context: column: Zorbax Extend-C18 2.1 x 50 mm; eluents: water / acetonitrile, 0.1% formic acid
observed-property: RP-LC retention time (s)

Cc1ccc(NC(=O)Nc2nccn(-c3ccc(Br)cc3)c2=O)cc1C = 1100
Cc1cccc(Sc2nccnc2N2CCCC(C(=O)NCCC(C)C)C2)c1 (centres undefined) = 1140
CCOC(=O)CCc1c(C)nn(-c2cc(N3CCOCC3)ncn2)c1C = 863
COc1ccc2[nH]cc(CCNC(=O)c3ccccc3F)c2c1 = 789
COC(=O)c1ncn2c1C(=O)N(Cc1ccc(C)cc1)C(C)(C(=O)NCc1ccccc1)C2 (centres undefined) = 747
O=C(c1ccc(Nc2nc3ccccc3n3nnnc23)cc1)N1CCN(c2ccccn2)CC1 = 661
CCCC(NC(=O)c1ccc(F)cc1)C(=O)Nc1nc2ccccc2[nH]1 (centres undefined) = 690

A. Cc1ccc(CNC(=O)CN2CCN(Cc3ccc(F)cc3)C2=O)o1
B. CC(C)Oc1ccc(-c2noc(Cn3ncn4nc(-c5cccs5)cc4c3=O)n2)cc1
Query: Problem: Given the entries A and B , determine which has the lower reported RP-LC retention time. Pick one; state its label.
Result: A
(A: 766 s, B: 1150 s)

* * *

- assay-overview: gradient 5% acetonitrile 3 min, to 50% in 2 min, to 85% in 15 min, held 3 min, 100 µL/min
- test-context: column: Zorbax Extend-C18 2.1 x 50 mm; eluents: water / acetonitrile, 0.1% formic acid
observed-property: RP-LC retention time (s)

O=C(CNC(=O)c1ccncc1)Nc1nc2ccccc2[nH]1 = 554
O=C(c1ccncc1)N1CC(C(=O)N2CCSCC2)C2(CCCCC2)C1 (centres undefined) = 620
CCOC(=O)C1CCN(C(=O)C(C)n2c(=O)c(C(F)(F)F)nc3cc(C)c(C)cc32)CC1 (centres undefined) = 1170
Cc1ccc(-c2nc(Nc3cccc(C(F)(F)F)c3)sc2CC(=O)O)c(C)c1 = 1120
COc1ccc(-c2nnc(-c3cccnc3N3CCN(c4ccc(C)cc4)CC3)o2)cc1 = 1060
O=C(CN1C(=O)COc2ccc(C(=O)N3CCCC3)cc21)NCCCc1ccccc1 = 747
Cc1ccc(CNC(=O)CNS(=O)(=O)c2cc(-c3noc(C)n3)sc2C)cc1 = 847

1. CCOC(=O)c1noc2nc(C)nc(NCc3ccc(Cl)cc3)c12
2. CCOC(=O)C1CCCN(C(=O)c2cc3c(=O)n(C)c(=O)n(C)c3s2)C1 (centres undefined)
Query: Pick one: 1 or 2 . Which has the bigger RP-LC retention time number? Give the label of your selection.
Result: 1
(1: 1160 s, 2: 674 s)

* * *

- assay-overview: gradient 5% acetonitrile 3 min, to 50% in 2 min, to 85% in 15 min, held 3 min, 100 µL/min
- test-context: column: Zorbax Extend-C18 2.1 x 50 mm; eluents: water / acetonitrile, 0.1% formic acid
observed-property: RP-LC retention time (s)

The examples below pair each entry with its known result.
Cc1ccc(CNC(=O)C2(C)Oc3cccnc3N(C(C)C)C2=O)cc1 (centres undefined) = 982
COc1ccc2c(c1)c(N1CCCC1=O)c(C(=O)NCCCN1CC(C)CC(C)C1)n2C (centres undefined) = 647
Cn1nnc2cc(-c3noc(CN4C(=O)COc5ccccc54)n3)ccc21 = 803

P. CCCN(CC1CCOC1)C(=O)Nc1cccc(SC)c1 (centres undefined)
Q. CC(C)c1csc(-c2csc(S(=O)(=O)Nc3ccc(Br)cc3F)c2)n1
Query: Could you determine which record has the numerically smaller RP-LC retention time? Candidates: P and Q Return value: the label identifying the chosen record.
Result: P
(P: 831 s, Q: 1200 s)

* * *

- assay-overview: gradient 5% acetonitrile 3 min, to 50% in 2 min, to 85% in 15 min, held 3 min, 100 µL/min
- test-context: column: Zorbax Extend-C18 2.1 x 50 mm; eluents: water / acetonitrile, 0.1% formic acid
observed-property: RP-LC retention time (s)

Take a look at these entries with their results.
COc1ccc2c(c1)C1(CCN(C(=O)c3ccccc3F)C1)C(=O)N2C (stereo not drawn) = 752
O=C(Nc1ccc(F)cc1)N1CCN(Cc2nc3cc(-c4ccccc4)ccc3o2)CC1 = 860

P. Cc1ccc(C(C)NC(=O)c2cn3c(n2)COCC3)c(C)c1 (stereo not drawn)
Q. Cc1nn(-c2ccccc2)c(C)c1S(=O)(=O)N1CCC(C(=O)NCc2ccc(Cl)cc2)CC1
Query: Decide: P or Q , by lowest recorded RP-LC retention time. Give the label under which the chosen entry appears.
Result: P

1. Cc1cccc(Oc2nccn3c(=O)n(CC(=O)NCCC4=CCCCC4)nc23)c1C
2. COc1cc(OC)c(OC)cc1CN(C)CCc1ccccn1
Query: # min-compare on RP-LC retention time between 1 and 2 State your choice using its label.
Result: 2
(2: 593 s, 1: 1000 s)

1. COc1ccc(-c2noc(C3CCCN3C(=O)c3ccc(C#N)cc3)n2)cc1OC (stereo not drawn)
2. Oc1ccccc1-n1c(-c2ccccc2)ccc1-c1ccccc1
Query: Could you check which of 1 and 2 has a smaller value for RP-LC retention time? Mark your selection by writing its label.
Result: 1

A. CC(C)c1ccc(CNC(=O)C2CCN(C(=O)c3ncn4c3COC(c3ccccc3)C4)CC2)cc1 (stereo not drawn)
B. COC1C(=O)N(C2CCN(C(=O)c3sc(C)nc3C)CC2)C12CCOCC2 (stereo not drawn)
Query: Field: entry with larger RP-LC retention time (options A / B ). Indicate which entry you chose by stating its label.
Result: A

a. Cc1ccn2cc(-c3ccc(NS(=O)(=O)c4cc(Cl)ccc4Cl)cc3)nc2n1
b. Cc1ccc(CNC(=O)C2(C)CCCN(C(=O)Nc3ccccc3C(F)(F)F)C2)cc1 (stereo not drawn)
Query: Compare RP-LC retention time: is it lower for a or for b ? // output: label of the selected item
Result: a
(a: 691 s, b: 1010 s)
